Tested on: yeast genes (level of expressed mRNA)
Test: DNA chip analysis of expressed mRNA of yeast genes after 2 h culture with a toxic chemical substance
Assay type: cell-based, Saccharomyces cerevisiae S288C
Settings: gene YEL044W
Recorded measurements of The level of expressed mRNA in the presence of chemical substance/absence: YEL044W, one per entry
Property: The level of expressed mRNA in the presence of chemical substance/absence: YEL044W

{"Compound": "CCCCC[C@H](O)CC(=O)CCc1ccc(O)c(OC)c1", "Target entity": "yeast genes (level of expressed mRNA)", "Measurement": 1.3}
{"Compound": "C=CC=O", "Target entity": "yeast genes (level of expressed mRNA)", "Measurement": 0.6}
{"Compound": "C[S+](C)[O-] [(15), dimethylsulfoxide]", "Target entity": "yeast genes (level of expressed mRNA)", "Measurement": 0.6}
{"Compound": "CCCCCCCCCCCCOS(=O)(=O)[O-].[Na+] [(18), sodium lauryl sulfate]", "Target entity": "yeast genes (level of expressed mRNA)", "Measurement": 1.0}

###

Tested on: yeast genes (level of expressed mRNA)
Assay: DNA chip analysis of expressed mRNA of yeast genes after 2 h culture with a toxic chemical substance
Format: cell-based, Saccharomyces cerevisiae S288C
Conditions: gene YIL154C
Property: level of expressed mRNA in the presence of chemical substance/in its absence

{"Compound": "S=C([S-])NCCNC(=S)[S-].[Zn+2] [(11), zinc N,N′-ethylenebis(dithiocarbamate)]", "Measurement": 1.2}
{"Compound": "CCCCC[C@H](O)CC(=O)CCc1ccc(O)c(OC)c1", "Measurement": 1.7}
{"Compound": "C[S+](C)[O-] [(15), dimethylsulfoxide]", "Measurement": 4.3}
{"Compound": "CCCCCCCCCCCCOS(=O)(=O)[O-].[Na+] [(18), sodium lauryl sulfate]", "Measurement": 1.0}

###

Tested on: yeast genes (level of expressed mRNA)
Test: DNA chip analysis of expressed mRNA of yeast genes after 2 h culture with a toxic chemical substance
Format: cell-based, Saccharomyces cerevisiae S288C
Details: gene YNL322C
Property: level of expressed mRNA in the presence of chemical substance/in its absence

{"Compound": "C=CC=O", "Measurement": 1.2}
{"Compound": "CCCCC[C@H](O)CC(=O)CCc1ccc(O)c(OC)c1", "Measurement": 0.8}
{"Compound": "C[S+](C)[O-] [(15), dimethylsulfoxide]", "Measurement": 3.7}
{"Compound": "S=C([S-])NCCNC(=S)[S-].[Zn+2] [(11), zinc N,N′-ethylenebis(dithiocarbamate)]", "Measurement": 0.6}

###

Recorded measurements of The level of expressed mRNA in the presence of chemical substance/absence: YPR061C, one per entry
Tested on: yeast genes (level of expressed mRNA)
Experiment: DNA chip analysis of expressed mRNA of yeast genes after 2 h culture with a toxic chemical substance
Assay type: cell-based, Saccharomyces cerevisiae S288C
Conditions: gene YPR061C
Property: The level of expressed mRNA in the presence of chemical substance/absence: YPR061C

{"Compound": "CCCCC[C@H](O)CC(=O)CCc1ccc(O)c(OC)c1 [(13), gingerol]", "Measurement": 1.1}
{"Compound": "COc1cc(CNC(=O)CCCCC=CC(C)C)ccc1O [(12), 8-methyl-N-vanillyl-6-nonenamide]", "Measurement": 0.8}
{"Compound": "S=C([S-])NCCNC(=S)[S-].[Zn+2] [(11), zinc N,N′-ethylenebis(dithiocarbamate)]", "Measurement": 1.6}
{"Compound": "C=CC=O [(14), acrolein]", "Measurement": 1.7}
